Reference for the values: patent US6737383B1

System: crabgrass
Experiment: Test B pre/postemergence crabgrass
Format: in vivo, Digitaria sanguinalis
Details: Preemergence, Rate 500 g/ha; scale 0 (no effect) to 10 (complete control)
Documented Crabgrass plant response rating across a set of compounds
Output spec: single numeric token, no unit.

Some solved entries appear below for comparison.
smiles_text=Cc1ccccc1-n1c(=O)on(C(=O)N(c2ccc(F)cc2)C(C)C)c1=O target=crabgrass numeric_readout=10
smiles_text=CC(C)N(C(=O)n1oc(=O)n(-c2cc(Cl)cc(Cl)c2)c1=O)C1=CCOCC1 target=crabgrass numeric_readout=3
smiles_text=CC(C)N(C(=O)n1oc(=O)n(-c2ccc(OC(F)(F)F)cc2)c1=O)C1=CCOCC1 target=crabgrass numeric_readout=5

Now let's try a different one.
Query: Answer with Crabgrass plant response rating of `CCN(CC)C(=O)n1oc(=O)n(-c2ccc(OC)cc2)c1=O` measured for crabgrass.
Response: 8
